# System: c-Abl (mouse);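 also: 11-residue human phosphosite peptides and single-mutation variants displayed on the E. coli surface, counted by deep sequencing, each peptide's frequency after selection divided by its frequency in the unselected input library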;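 also: frequency after pTyr selection over input frequency; kinase dosed for 20-30% of maximal phosphorylation in three min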
# protocol.text: phosphorylation enrichment, bacterial display (enrichment ratio); higher = better substrate or ligand; peptides without Tyr show the background
Outcome label depends on phosphorylation enrichment relative to 0.7: at/above gives Y, below gives N.

>  <sequence.content>
LSQQVYRVNLS [FAT4_Y480_F475L]

>  <class>
N

$$$$
>  <sequence.content>
VAFLYYKSIGP [ADGRL4_Y302_V300L]

>  <class>
Y

$$$$
>  <sequence.content>
VRTGIYHGREP [PIK3CA_Y361_G364R]

>  <class>
N

$$$$
>  <sequence.content>
LGPDGYSTVDR [ARVCF_Y901]

>  <class>
Y

$$$$
>  <sequence.content>
SEEVTYATLTF [CLEC12B_Y7]

>  <class>
Y

$$$$
>  <sequence.content>
RHPFFFAPELL [ALB_Y174_Y174F_YF]

>  <class>
Y

$$$$

-- ask Can HNLDYYKKTTN [FGFR3_Y648] be said to have phosphorylation enrichment at or above 0.7?
-- reply Y
